ASSAYED TARGET: Nitric oxide synthase, inducible (Mus musculus, UniProt P29477)
Sequence (P29477 whole entry): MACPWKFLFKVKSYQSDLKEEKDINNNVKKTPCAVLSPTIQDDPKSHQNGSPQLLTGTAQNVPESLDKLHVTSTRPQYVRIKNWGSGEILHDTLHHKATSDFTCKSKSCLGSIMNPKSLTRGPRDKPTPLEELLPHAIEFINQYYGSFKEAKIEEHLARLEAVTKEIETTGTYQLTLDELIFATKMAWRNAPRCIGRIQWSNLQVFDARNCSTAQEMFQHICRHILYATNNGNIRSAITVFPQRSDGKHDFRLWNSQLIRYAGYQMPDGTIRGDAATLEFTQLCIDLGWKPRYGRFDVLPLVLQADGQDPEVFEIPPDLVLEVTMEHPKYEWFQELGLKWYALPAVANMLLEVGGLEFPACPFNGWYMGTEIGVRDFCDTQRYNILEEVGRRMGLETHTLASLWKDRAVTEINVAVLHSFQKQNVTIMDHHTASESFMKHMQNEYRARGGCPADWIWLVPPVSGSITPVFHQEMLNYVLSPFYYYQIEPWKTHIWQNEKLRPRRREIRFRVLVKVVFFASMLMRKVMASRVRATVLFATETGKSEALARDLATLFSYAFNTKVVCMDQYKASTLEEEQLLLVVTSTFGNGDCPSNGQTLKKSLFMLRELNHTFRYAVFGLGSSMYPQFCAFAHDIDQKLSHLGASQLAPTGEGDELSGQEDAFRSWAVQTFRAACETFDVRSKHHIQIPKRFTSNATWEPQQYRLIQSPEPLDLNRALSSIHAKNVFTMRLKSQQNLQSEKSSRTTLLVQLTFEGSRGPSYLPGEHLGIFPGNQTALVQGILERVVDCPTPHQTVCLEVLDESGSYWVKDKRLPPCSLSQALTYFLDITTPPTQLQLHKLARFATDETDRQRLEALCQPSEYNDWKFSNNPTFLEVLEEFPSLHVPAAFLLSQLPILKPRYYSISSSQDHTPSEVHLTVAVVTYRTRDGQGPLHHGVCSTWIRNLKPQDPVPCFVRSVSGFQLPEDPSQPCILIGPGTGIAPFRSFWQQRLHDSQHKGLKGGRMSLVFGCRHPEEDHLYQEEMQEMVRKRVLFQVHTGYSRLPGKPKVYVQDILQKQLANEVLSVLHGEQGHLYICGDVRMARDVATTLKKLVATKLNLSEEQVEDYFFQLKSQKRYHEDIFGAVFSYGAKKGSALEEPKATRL
ASSAY COMMENT: Inhibition of inducible nitric oxide synthetase in LPS-stimulated mouse ANA1 macrophages
pIC50: −log10 of the molar value.

COMPOUND | pIC50
Cc1ccc2nc(Nc3c(C#N)cnc4cc(OCCCN5CCN(C)CC5)c(C)cc34)sc2c1 | 4.90
COc1cc2c(Nc3nc4ccccc4[nH]3)c(C#N)cnc2cc1OCCCN1CCN(C)CC1 | 4.74
N=C(N)NOCC[C@H](N)C(=O)O [CANAVANINE] | 4.22
COc1cc2c(Nc3nc4ccccc4s3)c(C#N)cnc2cc1OCCN1CCOCC1 | 4.57
Cc1cc2c(Nc3nc4ccccc4s3)c(C#N)cnc2cc1OCCCN1CCOCC1 | 3.86
COc1cc2c(Nc3nc4ccccc4s3)c(C#N)cnc2cc1OCCCN1CCN(C)CC1 | 4.01
Cc1cc2c(Nc3nc4ccc(OC(F)(F)F)cc4s3)c(C#N)cnc2cc1OCCCN1CCN(C)CC1 | 4.79
Cc1ccc2nc(Nc3c(C#N)cnc4cc(OCCCN5CCCCC5)c(C)cc34)sc2c1 | 3.50
Cc1cc2c(Nc3ccccn3)c(C#N)cnc2cc1OCCCN1CCN(C)CC1 | 4.73
Cc1cc2c(Nc3nc4ccccc4[nH]3)c(C#N)cnc2cc1OCCCN1CCN(C)CC1 | 4.81
COc1cc2c(Nc3nc4ccccc4s3)c(C#N)cnc2cc1OCCN1CCN(C)CC1 | 5.66
COc1cc2c(Nc3nc4ccccc4s3)c(C#N)cnc2cc1OCCN1CCCCC1 | 4.35
COc1cc2c(Nc3nc4ccc(OC(F)(F)F)cc4s3)c(C#N)cnc2cc1OCCCN1CCN(C)CC1 | 4.18
Nc1nccs1 [AMINOTHIAZOLE] | 4.74
Cc1cc2c(Nc3nc4ccccc4s3)c(C#N)cnc2cc1OCCCN1CCCCC1 | 3.39
